# System: NCI-H522
# Run description: NCI tumour cell line growth inhibition, 48 h
Active and inactive are the calls of the source. No stated cut-off is given here; in the data, active = GI50 up to about 1.1 µM and inactive = higher.
Assay readout: GI50

// worked examples, GI50 included
Which GI50 reading was recorded for the compound C#CCNC(CSSCC(N)C(=O)O)C(=O)O (stereo not given) ?
> 100 µM (inactive)

Consider the compound shown here: "CN1CN(c2ccccc2)C2(CCN(C(=O)OC(C)(C)C)CC2)C1=O" What is its recorded GI50?
> 100 µM (inactive)

Fill in: GI50 of "CCCCCCN(CCCCCC)C1=CC(=O)C(=O)c2ccccc21" is ___
11.6 µM (inactive)

Reported GI50 for "CC1(C)CN=C(Nc2cccc(C(F)(F)F)c2)S1" : what is it?
> 100 µM (inactive)

Give the measured GI50 of O=C(OCc1ccccc1)N1c2cc([N+](=O)[O-])ccc2C(=O)N2CCC[C@H]2C1O (stereo not given in full) .
> 100 µM (inactive)

Entry under review: "CC(=O)O[C@H]1CCn2c3c(c(C)c21)C(=O)C(N1CC1)=C(C)C3=O" . Reported GI50?
> 10 µM (inactive)

For "S=C1SCN(Cc2ccco2)CN1c1ccc(Br)cc1" , what is its reported GI50?
10.3 µM (inactive)

Fill blank: measured GI50 of the compound C/C1=C\[C@H](C)C[C@H](C)OC(=O)C[C@H](c2ccc(O)cc2)NC(=O)[C@@H](Cc2c(Br)[nH]c3ccccc23)N(C)C(=O)[C@H](C)NC(=O)[C@@H](C)C1 [JASPAMIDE] is ____.
0.203 µM (active)

---
# GI50 lookup, item "Oc1nc2ccccc2c(O)c1Cc1ccccc1"
> 100 µM (inactive)

Please report the recorded GI50 for COC(=O)C1(Cc2ccc3c(c2)CCC3)Cc2ccccc2C1O (stereo not given) .
15.9 µM (inactive)

Entry source: ChEMBL document CHEMBL1201862
